From: ChEMBL document CHEMBL1124065

Property: delta logP; scope: individual compounds
ASSAY_PROTOCOL: Delta logPoct-cyc
Format: ADME
MEASUREMENT_PARAMETERS: octanol/water
Format: numeric value only, no unit, no commentary.

Query: Value lookup for delta logP; key = COc1cccnc1CCCCNc1ncc(Cc2ccc(C)nc2)c(=O)[nH]1 [ICOTIDINE]
Result: 5.18

Query: Another compound to check: Clc1cccc(Cl)c1N=C1NCCN1 [CLONIDINE]
Result: 2.44

Query: Another compound to check: COc1ccc(CN(CCN(C)C)c2ccccn2)cc1 [PYRILAMINE]
Result: 0.71

Query: Another compound to check: CN(C)Cc1ccc(CSCCNc2ncc(Cc3ccc4ccccc4c3)c(O)n2)o1
Result: 4.1

---

ASSAY_PROTOCOL: Logarithm of partition coefficient of the neutral form of compound given for octanol/water solvent system
Type: physicochemical
OUTCOME_MEASURE: logP
Format: numeric value only, no unit, no commentary.

Some compounds with known logP results, for comparison:
INSERT INTO results (structure_as_smiles, endpoint_value) VALUES
  ('CN(C)Cc1ccc(CSCCNc2[nH]cc(Cc3ccccc3)c2[N+](=O)[O-])o1', 3.65),
  ('O=[N+]([O-])c1cc[nH]c1NCCSCc1ncccc1Br', 1.75),
  ('CN/C(=C\[N+](=O)[O-])NCCSCc1ccc(CN(C)C)o1', 0.27),
  ('O=[N+]([O-])c1cc[nH]c1NCCSCc1nccc2ccccc12', 2.79),
  ('CN(C)Cc1ccc(CSCCNc2[nH]ccc2[N+](=O)[O-])o1', 1.64);

Query: Value lookup for logP; key = CNC(=NCCSCc1csc(N=C(N)N)n1)NC#N
Result: 0.6

Query: Another compound to check: COc1ccc(CN(CCN(C)C)c2ccccn2)cc1
Result: 3.3

Query: Another compound to check: O=C(NCCCOc1cccc(CN2CCCCC2)c1)c1ccccc1
Result: 3.97

Query: Another compound to check: N=C(N)Nc1nc(-c2cccc(N)c2)cs1
Result: 1.41

Query: Another compound to check: Cc1ccc(Cc2c[nH]c(NCCSCc3ccc(CN(C)C)o3)nc2=O)cn1
Result: 2.33

Query: Another compound to check: NC(N)=Nc1nc(-c2ccccc2)cs1
Result: 2.64

---

ASSAY_PROTOCOL: Partition coefficient (Log Pn, neutral form, cyclohexane/water)
Assay type: ADME
Label MET for high-side Log Pn (at or above -1) and NOT MET for low-side Log Pn (below it).

Some entries whose results are on file:
INSERT INTO assay_data (molecule, class_label) VALUES
  ('Cc1ccc(Cc2c[nH]c(NCCSCc3ccc(CN(C)C)o3)nc2=O)cn1 [LUPITIDINE]', 'NOT MET'),
  ('Cc1csc(N=C(N)N)n1', 'NOT MET'),
  ('CN(C)Cc1ccc(CSCCNc2[nH]ccc2[N+](=O)[O-])o1', 'NOT MET'),
  ('CN/C(=C\[N+](=O)[O-])NCCSCc1ccc(CN(C)C)o1 [RANITIDINE]', 'NOT MET'),
  ('CC(=O)NCCCOc1cccc(CN2CCCCC2)c1', 'MET'),
  ('O=C(NCCCOc1cccc(CN2CCCCC2)c1)c1ccccc1', 'MET'),
  ('C/N=C(\NC#N)Nc1cccc(-c2csc(N=C(N)N)n2)c1', 'NOT MET'),
  ('NC(N)=Nc1nc(-c2ccccc2)cs1', 'NOT MET');

Moving on to another molecule below.
Query: Textbook exercise: given the entry c1cc(CN2CCCCC2)cc(OCCCNc2nc3ccccc3s2)c1 [ZOLANTIDINE] , state whether its Log Pn is greater than or equal to -1.
Result: MET
